- System: NCI/ADR-RES ovarian
- test: NCI-60 one-dose screen, 48 h (100 = growth as untreated, 0 = no growth, -100 = all killed)
- experimental_context: 10 µM unless noted
Compounds without any hit were thinned out: in the full panel of roughly 83,000, 20% have a hit.
assay_endpoint: growth (%)
Could you give me the number in %? Just the number is fine.

CS(=O)CC(=N\O)/C(CS(C)=O)=N\O (centres undefined) has a reported growth of 108

----------
- System: T-47D breast
- test: NCI-60 one-dose screen, 48 h (100 = growth as untreated, 0 = no growth, -100 = all killed)
- experimental_context: 10 µM unless noted
About 83,000 compounds went through this panel and 20% of them were active in at least one assay; those are over-represented in the sample as a whole.
Listing of entries alongside the reported growth.
Could you give me the number in %? Just the number is fine.

NC(=S)N/N=C/c1ccc(OC(=O)COc2ccccc2)cn1 : 41.5
Cc1ccc2nc(-c3ccc(N=Cc4ccccc4O)cc3)sc2c1 : 69

Item `Clc1cccc(Cl)c1CSc1nc2ccccc2n2cccc12` was tested on T-47D breast; the reported growth is 25.1

Item `CN(CCCN(C)CCC1CCCCC1)CCC1CCCCC1` was tested on T-47D breast; the reported growth is 17.9

Item `CC(=O)Nc1ccc(/C=C2\SC(=S)N(/C=C(\C(C)=O)C(N)=O)C2=O)cc1` was tested on T-47D breast; the reported growth is 87.5

----------
- Test system: OVCAR-8 ovarian
- test: NCI-60 one-dose screen, 48 h (100 = growth as untreated, 0 = no growth, -100 = all killed)
- experimental_context: 10 µM unless noted
The panel holds about 83,000 compounds, 20% with a hit somewhere; the sample as a whole holds those more often. Active and inactive are the calls of the source. Rule for the calls: active = growth percent below 10; inactive = the rest.
assay_endpoint: growth

// known answers, use as guide
CCCC(=O)CC(=O)c1ccccc1 : 93.6% (inactive)
CSc1cnc2ccccc2n1 : 95.5% (inactive)
Nc1ccn(C2OC(CO)C(O)C2F)c(=O)n1 (stereo not given) : 61.8% (inactive)
CCOC(=O)CSCCC#N : 96.8% (inactive)
C=C1SC(=Nc2c(C)cccc2C)N(c2nc(Cl)nc(Cl)n2)C12CCCCC2 : 98.8% (inactive)
CC(CC(CCC(=O)O)(c1ccccc1)c1ccccc1)N(C)C (stereo not given) : 94.4% (inactive)
C[n+]1c(/C=C\C=C\N2CCCCC2)sc2ccccc21 : -17.7% (active)
CCCCN(C=S)CCCC : 95% (inactive)

`CCCCCCCCCc1ccc(OC(C)=O)cc1` has a reported growth of 101% (inactive)

`CCN(CC)c1ccc2nc3ccc(N=Nc4ccc(N(C)C)cc4)cc3[n+](-c3ccccc3)c2c1` has a reported growth of 5.08% (active)

`CCc1ccccc1C(=O)N(CC)CC` has a reported growth of 105% (inactive)

`C/C(=N\Nc1ccc([N+](=O)[O-])cc1[N+](=O)[O-])c1ccc(Br)cc1` has a reported growth of 96.8% (inactive)

`CC(=O)NCNC(C)=O` has a reported growth of 98% (inactive)

`COc1cccc(C(=O)O)c1OC` has a reported growth of 101% (inactive)

`S=C(NCc1ccccc1)N1CCC(CCCC2CCN(C(=S)NCc3ccccc3)CC2)CC1` has a reported growth of 96.4% (inactive)

`CC(C)=CCC[C@@H](C)[C@H]1CC[C@@]2(C)C3=C(CC[C@]12C)[C@@]1(C)CC[C@H](O)C(C)(C)[C@@H]1CC3` has a reported growth of 102% (inactive)

`C=CCNC(=S)N/C=C(/C(=O)c1ccccc1)c1ccccc1` has a reported growth of 117% (inactive)

`O=c1[nH]c(=O)c2cc(Cl)cc(Cl)c2[nH]1` has a reported growth of 101% (inactive)

NC(CSSCC(N)C(=O)O)C(=O)O (stereo not given) has a reported growth of 2.42% (active)

`O=[N+]([O-])c1c(O)c(CNCCCO)cc(CNCCCO)c1O` has a reported growth of 106% (inactive)

`O=Cc1ccc(Cl)c(Cl)c1` has a reported growth of 101% (inactive)

`Cc1ccc2[nH]c3ccccc3c2c1` has a reported growth of 98.4% (inactive)

`COc1ccc2c(c1)Nc1ccccc1S2` has a reported growth of 102% (inactive)

`CCN(CC)CCOC(=O)Nc1c(C(C)C)cccc1C(C)C` has a reported growth of 102% (inactive)

CC1(C)OC2C(CO)OC(n3ccc(=O)[nH]c3=O)C2O1 (stereo not given) has a reported growth of 91.8% (inactive)

`O=Cc1c(O)c2ccccc2[nH]c1=O` has a reported growth of 95.1% (inactive)
